# target or test system: T1, carcinoembryonic antigen (CEA) (human, UniProt P06731 35-685)
# T1 sequence (looked up): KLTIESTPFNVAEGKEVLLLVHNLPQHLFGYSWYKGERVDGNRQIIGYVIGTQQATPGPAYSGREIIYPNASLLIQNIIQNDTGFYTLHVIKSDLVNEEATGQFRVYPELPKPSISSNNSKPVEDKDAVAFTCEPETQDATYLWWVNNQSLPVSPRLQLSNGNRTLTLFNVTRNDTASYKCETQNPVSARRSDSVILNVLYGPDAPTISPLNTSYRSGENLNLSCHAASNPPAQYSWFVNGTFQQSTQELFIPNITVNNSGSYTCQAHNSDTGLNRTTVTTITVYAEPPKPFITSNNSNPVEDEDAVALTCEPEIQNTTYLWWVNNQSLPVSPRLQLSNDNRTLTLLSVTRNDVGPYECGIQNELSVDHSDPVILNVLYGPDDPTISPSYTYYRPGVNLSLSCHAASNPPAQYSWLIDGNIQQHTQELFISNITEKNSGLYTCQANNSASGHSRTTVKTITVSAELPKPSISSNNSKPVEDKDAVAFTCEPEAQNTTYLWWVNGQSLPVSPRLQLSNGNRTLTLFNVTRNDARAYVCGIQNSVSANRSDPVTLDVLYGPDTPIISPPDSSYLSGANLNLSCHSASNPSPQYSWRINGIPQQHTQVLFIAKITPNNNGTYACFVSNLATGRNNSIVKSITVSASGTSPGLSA
# assay explanation: competition RIA against 125I-mCOL-1; reference of the fold not named
assay metric: Fold Difference (fold)
Quick note: give the figure in fold, leave out the unit.

Ask: Determine from records and report Fold Difference for FRV12 (antibody, name in Kabat numbering, V domains shown, Kabat positions (see notes of FRV2 and FRV8); also called HuCOL-1AbrCDR framework variant 12) VH: QVQLVQSGAEVKKPGASVKVSCKASGYNIKDYYMHWVRQRPEQGLEWMGWIDPENGDTEYAQKFQGRVTMTTDTSTSTVYMELSSLRSEDTAVYYCNTRGLSTMITTRWFFDVWGAGTLVTVSS VL: DIVMTQSPASLAVSLGERATINCKSSQSVSASGYSYMHWYQQKPGQPPKLLIYLASNLQSGVPDRFSGSGSGTDFTLTISSLQAEDVAVYYCQHSRELPTFGGGTKVEIK
Reply: 5.6

Ask: Specify Fold Difference for HuCOL-1AbrCDR (antibody, V domains shown, also called FRV1; HuCOL-1 24,25,27L/61H) VH: EVQLVQSGAEVVKPGASVKMSCKASGFNIKDYYMHWVKQRPEQGLEWIGWIDPENGDTEYAQKFQGKATMTTDTSTSTAYLELSSLRSEDTAVYYCNTRGLSTMITTRWFFDVWGAGTLVTVSS VL: DIVLTQSPASLAVSLGERATINCKSSQSVSASGYSYMHWYQQKPGQPPKLLIYLASNLQSGVPARFSGSGSGTDFTLTISSVQAEDVATYYCQHSRELPTFGGGTKLEIK and stop.
Reply: 1.2

Ask: Read off the recorded Fold Difference for FRV2 (antibody, name in Kabat numbering, V domains shown, also called HuCOL-1AbrCDR framework variant 2) VH: EVQLVQSGAEVVKPGASVKMSCKASGFNIKDYYMHWVKQRPEQGLEWIGWIDPENGDTEYAQKFQGKATMTTDTSTSTAYLELSSLRSEDTAVYYCNTRGLSTMITTRWFFDVWGAGTLVTVSS VL: DIVMTQSPASLAVSLGERATINCKSSQSVSASGYSYMHWYQQKPGQPPKLLIYLASNLQSGVPARFSGSGSGTDFTLTISSLQAEDVATYYCQHSRELPTFGGGTKVEIK
Reply: 9.5
